// data source = paper PMC12066687

# System: VSV-EBOV-GP
# test-name: microbe, parasite or virus in culture
# Assay type: cell-based, Ebola virus (EBOV/H.sap-tc/COD/76/Yambuku-Mayinga)
measurement-name: pEC50
Lab note — pEC50 values are minus log10 of concentrations in M.

## Input // fetch pEC50 given entry CC/C(=C(\c1ccccc1)c1ccc(OCCN(C)C)cc1)c1cccc(NS(=O)(=O)NC2CCOC2)c1 (stereo not shown)
## Output 6.62

----------
# Tested on: VSV-EBOV-GP
# test-name: microbe, parasite or virus in culture
# Type: cell-based, Ebola virus (EBOV/H.sap-tc/COD/76/Yambuku-Mayinga)
# condition-set: Zaire ebolavirus, Vero
measurement-name: pEC50
Here pEC50 is given on a logarithmic scale as minus log10 of the concentration in mol/L.

## Input Supply measured pEC50 of `CC/C(=C(\c1ccccc1)c1ccc(OCCN(C)C)cc1)c1cccc(NS(=O)(=O)NC2COC2)c1` in your reply.
## Output 6.81

## Input Consider the molecule `CC/C(=C(\c1ccccc1)c1ccc(OCCN(C)C)cc1)c1cccc(NS(=O)(=O)N[C@H]2CCN(C)C2)c1` and give its recorded pEC50.
## Output 6.18

## Input Could you please provide reported pEC50 for `CC/C(=C(\c1ccccc1)c1ccc(OCCN(C)C)cc1)c1cccc(NS(=O)(=O)N[C@H]2CCOC2)c1` ? Thanks!
## Output 7.04

## Input Give the measured pEC50 for CC/C(=C(\c1ccccc1)c1ccc(OCCN(C)C)cc1)c1cccc(NS(=O)(=O)NC2COCC2C)c1 (centres unmarked)
## Output 6.70

## Input Tell me measured pEC50 for CC/C(=C(\c1ccccc1)c1ccc(OCCN(C)C)cc1)c1cccc(NS(=O)(=O)NC2CCN(CC)C2)c1 (centres unmarked) please.
## Output 6.08

## Input For CC/C(=C(\c1ccccc1)c1ccc(OCCN(C)C)cc1)c1cccc(NS(=O)(=O)NC2CCN(C(C)C)C2)c1 (centres unmarked) , write its pEC50.
## Output 6.10

----------
# Tested on: VSV-EBOV-GP
# test-name: microbe, parasite or virus in culture
# Type: cell-based, Ebola virus (EBOV/H.sap-tc/COD/76/Yambuku-Mayinga)
# condition-set: Zaire ebolavirus, Vero, read-out: Inhibition% (200nM)
In this section, each of the compounds is paired with its reported inhibition at 0.2 µM.
Express your answer in %, writing the number without its unit.

The examples below pair each entry with its known result.
| compound | inhibition at 0.2 µM, % |
| --- | --- |
| CC/C(=C(\c1ccccc1)c1ccc(OCCN(C)C)cc1)c1ccc(N=S(=O)(F)N(C)Cc2n[nH]c(=O)[nH]2)cc1 (centres unmarked) | 11 |
| CC/C(=C(\c1ccccc1)c1ccc(OCCN(C)C)cc1)c1ccc(NS(=O)(=O)NCc2ccn[nH]2)cc1 | 4.27 |
| CC/C(=C(\c1ccccc1)c1ccc(OCCN(C)C)cc1)c1ccc(NS(=O)(=O)NC(C)c2n[nH]c(=O)[nH]2)cc1 (centres unmarked) | 14.1 |
| CC/C(=C(\c1ccccc1)c1ccc(OCCN(C)C)cc1)c1ccc(NS(=O)(=O)NCc2n[nH]c(=O)[nH]2)cc1 | -0.485 |

Let's switch to this compound now.
## Input Look up and state reported inhibition at 0.2 µM for CC/C(=C(\c1ccccc1)c1ccc(OCCN(C)C)cc1)c1ccc(N=S(=O)(F)N(C)Cc2ccn[nH]2)cc1 (centres unmarked)
## Output 2.05

----------
Form field: CC50 (one value per entry).
# test-name: in vitro
# condition-set: African green monkey
Write the answer as a number in µM, unit excluded.

| molecule | measurement-name | measure-unit | measured |
| --- | --- | --- | --- |
| CC/C(=C(\c1ccccc1)c1ccc(OCCN(C)C)cc1)c1cccc(NS(=O)(=O)N[C@H]2CCN(C(CC)CC)C2)c1 | CC50 | µM | 5.3 |

## Input Report measured CC50; entry is CC/C(=C(\c1ccccc1)c1ccc(OCCN(C)C)cc1)c1cccc(NS(=O)(=O)NC2CCN(CCCO)C2)c1 (stereo not shown)
## Output 7.7

## Input Report CC50 for `CC/C(=C(\c1ccccc1)c1ccc(OCCN(C)C)cc1)c1cccc(NS(=O)(=O)N[C@@H]2CCOC2)c1`
## Output 15

## Input Determine from records and report CC50 for `CC/C(=C(\c1ccccc1)c1ccc(OCCN(C)C)cc1)c1cccc(NS(=O)(=O)NC2COC2)c1`
## Output 6.8

----------
# test-name: in vitro
# condition-set: African green monkey
measurement-name: CC50
Answer by giving the amount and then stating its unit.

Sample records with CC50:
| compound | CC50 |
| --- | --- |
| CCCN1CCC(NS(=O)(=O)Nc2cccc(/C(CC)=C(/c3ccccc3)c3ccc(OCCN(C)C)cc3)c2)C1 (stereo not drawn) [Compound 14] | 3.1 µM |
| CC/C(=C(\c1ccccc1)c1ccc(OCCN(C)C)cc1)c1cccc(NS(=O)(=O)NC2CCN(C(C)C)C2)c1 (stereo not drawn) [Compound 9] | 3.4 µM |
| CC/C(=C(\c1ccccc1)c1ccc(OCCN(C)C)cc1)c1cccc(NS(=O)(=O)NC2CCN(C)C2)c1 (stereo not drawn) [Compound 8] | 2 µM |
| CC/C(=C(\c1ccccc1)c1ccc(OCCN(C)C)cc1)c1cccc(NS(=O)(=O)NC2CCN(CC)C2)c1 (stereo not drawn) [Compound 12] | 4 µM |
| CC/C(=C(\c1ccccc1)c1ccc(OCCN(C)C)cc1)c1cccc(NS(=O)(=O)N[C@H]2CCOC2)c1 [Compound 4S] | 14 µM |

## Input Return CC50 for the following compound: CC/C(=C(\c1ccccc1)c1ccc(OCCN(C)C)cc1)c1cccc(NS(=O)(=O)N[C@@H]2CCN(C)C2)c1 [Compound 11]
## Output 3.6 µM

----------
# Lookup of reported EC50 keyed by entry
# Tested on: VSV-EBOV-GP
# test-name: microbe, parasite or virus in culture
# Format: cell-based, Ebola virus (EBOV/H.sap-tc/COD/76/Yambuku-Mayinga)
# condition-set: Zaire ebolavirus, Vero
Field format: number, assumed nM, no unit text.

| molecule | target-desc | EC50 (nM) |
| --- | --- | --- |
| CC/C(=C(\c1ccccc1)c1ccc(OCCN(C)C)cc1)c1cccc(NS(=O)(=O)N[C@H]2CCN(C(CC)CC)C2)c1 | VSV-EBOV-GP | 813 |

## Input Look up and report measured EC50 for this entry: `CC/C(=C(\c1ccccc1)c1ccc(OCCN(C)C)cc1)c1cccc(NS(=O)(=O)N[C@@H]2CCOC2)c1`
## Output 351

## Input Return the recorded EC50 value; entry: `CC/C(=C(\c1ccccc1)c1ccc(OCCN(C)C)cc1)c1cccc(NS(=O)(=O)N[C@@H]2CCN(C)C2)c1`
## Output 575

## Input Tell me its EC50 given CC/C(=C(\c1ccccc1)c1ccc(OCCN(C)C)cc1)c1cccc(NS(=O)(=O)NC2CCOC2)c1 (centres unmarked) as the entry.
## Output 241

## Input Identify the reported EC50 for the following entry. CC/C(=C(\c1ccccc1)c1ccc(OCCN(C)C)cc1)c1cccc(NS(=O)(=O)NC2CCN(CCCO)C2)c1 (centres unmarked)
## Output 1720

## Input Return EC50 for the following molecule: CCCN1CCC(NS(=O)(=O)Nc2cccc(/C(CC)=C(/c3ccccc3)c3ccc(OCCN(C)C)cc3)c2)C1 (centres unmarked)
## Output 618

## Input Specify reported EC50 for the molecule shown: CC/C(=C(\c1ccccc1)c1ccc(OCCN(C)C)cc1)c1cccc(NS(=O)(=O)NC2CCN(C)C2)c1 (centres unmarked)
## Output 145

## Input Could you please provide reported EC50 for CC/C(=C(\c1ccccc1)c1ccc(OCCN(C)C)cc1)c1cccc(NS(=O)(=O)NC2(C)CCOC2)c1 (centres unmarked) ? Thanks!
## Output 268

----------
# test-name: in vitro
# condition-set: African green monkey
Catalogue of CC50 readings, one per entry.
Quick note: give the figure in µM, leave out the unit.

Please review the following examples before continuing.
| compound | CC50 / µM |
| --- | --- |
| CC/C(=C(\c1ccccc1)c1ccc(OCCN(C)C)cc1)c1cccc(NS(=O)(=O)NC2(C)CCOC2)c1 (stereo not drawn) [Compound 7] | 8.4 |
| CC/C(=C(\c1ccccc1)c1ccc(OCCN(C)C)cc1)c1cccc(NS(=O)(=O)N[C@H]2CCN(C)C2)c1 [Compound 10] | 3 |

Please examine the following record next.
## Input Report CC50 for CC/C(=C(\c1ccccc1)c1ccc(OCCN(C)C)cc1)c1cccc(NS(=O)(=O)NC2COCC2C)c1 (stereo not drawn) [Compound 6]
## Output 14
